Cited source for all entries: PubChem BioAssay AID1963864

System: KRAS PDC multicell spheroid viability
Test: Anticancer human tumor 521955-158-R6-J3-PDC patient-derived pancreatic carcinoma cell line growth inhibition [KRAS2]
Conditions: second compound 1 µM; first compound 1 µM; stronger effect = lower value
Readings of viability, T/C for the listed compounds

>  <compound>
COc1cc2nccc(Oc3ccc(NC(=O)C4(C(=O)Nc5ccc(F)cc5)CC4)cc3)c2cc1OC + COc1cc2nc(C)nc(NC(C)c3cc(N)cc(C(F)(F)F)c3)c2cc1OC1CCOC1

>  <viability, T/C>
88.1%

$$$$
>  <compound>
CCNC(=O)CC1N=C(c2ccc(Cl)cc2)c2cc(OC)ccc2-n2c(C)nnc21 (stereo not given) + C=CC(=O)N1CCN(c2nc(=O)n(-c3c(C)ccnc3C(C)C)c3nc(-c4c(O)cccc4F)c(F)cc23)C(C)C1

>  <viability, T/C>
81.1%

$$$$
>  <compound>
CCNC(=O)CC1N=C(c2ccc(Cl)cc2)c2cc(OC)ccc2-n2c(C)nnc21 (stereo not given) + COc1cc2nc(C)nc(NC(C)c3cc(N)cc(C(F)(F)F)c3)c2cc1OC1CCOC1

>  <viability, T/C>
65.6%

$$$$
>  <compound>
COc1cc(Nc2ncc3c(n2)-c2ccc(Cl)cc2C(c2c(F)cccc2OC)=NC3)ccc1C(=O)O + CNCc1ccccc1-c1csc(C(C)Nc2nc(C)nc3cc(OC)c(OC)cc23)c1

>  <viability, T/C>
78.2%

$$$$
>  <compound>
CC1COCCN1c1cc(-c2ccnn2C)c2ccnc(-c3ccn[nH]3)c2n1 (stereo not given) + COc1cc2nc(C)nc(NC(C)c3cc(N)cc(C(F)(F)F)c3)c2cc1OC1CCOC1

>  <viability, T/C>
66.8%

$$$$

###

System: KRAS PDC multicell spheroid viability
Experiment: Anticancer human tumor 521955-158-R6-J3-PDC cell line growth inhibition [KRAS2]; active means viability on the fitted dose curve at most 10% of control; inactive means the rest;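 also: drug exposure lasted seven days; 100% = DMSO vehicle wells and lower means fewer viable cells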
Settings: second compound 10 µM; first compound 0.0001 µM
Classes used: True = active, False = inactive

>  <molecule>
CC(=O)Nc1cccc(-n2c(=O)n(C3CC3)c(=O)c3c(Nc4ccc(I)cc4F)n(C)c(=O)c(C)c32)c1 + CC1OCC2(CCN(c3cnc(Sc4ccnc(N)c4Cl)c(N)n3)CC2)C1N

>  <system>
KRAS PDC multicell spheroid viability

>  <group label>
False

$$$$
>  <molecule>
CC(=O)Nc1cccc(-n2c(=O)n(C3CC3)c(=O)c3c(Nc4ccc(I)cc4F)n(C)c(=O)c(C)c32)c1 + CNCc1ccccc1-c1csc(C(C)Nc2nc(C)nc3cc(OC)c(OC)cc23)c1

>  <system>
KRAS PDC multicell spheroid viability

>  <group label>
True

$$$$
>  <molecule>
CC(=O)Nc1cccc(-n2c(=O)n(C3CC3)c(=O)c3c(Nc4ccc(I)cc4F)n(C)c(=O)c(C)c32)c1 + C=CC(=O)N1CCN(c2nc(=O)n(-c3c(C)ccnc3C(C)C)c3nc(-c4c(O)cccc4F)c(F)cc23)C(C)C1

>  <system>
KRAS PDC multicell spheroid viability

>  <group label>
False

$$$$
>  <molecule>
CC(=O)Nc1cccc(-n2c(=O)n(C3CC3)c(=O)c3c(Nc4ccc(I)cc4F)n(C)c(=O)c(C)c32)c1 + COc1cc2nc(C)nc(NC(C)c3cc(N)cc(C(F)(F)F)c3)c2cc1OC1CCOC1

>  <system>
KRAS PDC multicell spheroid viability

>  <group label>
False

$$$$
